Reference for the values: patent US4677100A

Reported values of MIC for individual entries
System: P. maltophilia IID 1275
run-description: MIC, agar plate dilution method
Assay type: cell-based, Pseudomonas maltophilia
run-parameters: Stenotrophomonas maltophilia, IID1275; P. maltophilia IID 1275; 10^6 CFU/ml; Sensitivity Disk Agar; read-out: Minimum Inhibitory Concentration

Consider the worked cases shown below.
- compound: "CCON=C(C(=O)NC1C(=O)N2C(C(=O)[O-])=C(C[N+]3(C)Cc4cc(O)c(O)cc4C3)CSC12)c1csc(N)n1 (stereo not drawn) [Ex. 5-D]"
  MIC: "25 µg/mL"
- compound: "CO/N=C(\\C(=O)NC1C(=O)N2C(C(=O)[O-])=C(C[N+]3(C)Cc4ccccc4C3)CSC12)c1csc(N)n1 (stereo not drawn) [Reference Ex., reference compound]"
  MIC: "> 25 µg/mL"

Incoming: May I ask what MIC has been recorded for CO/N=C(\C(=O)NC1C(=O)N2C(C(=O)[O-])=C(C[N+]3(C)Cc4ccc(OC(C)=O)cc4C3)CSC12)c1csc(N)n1 (stereo not drawn) [Ex. 1-F] ?
Outgoing: > 25 µg/mL
